test: folding stability dG unfold from chymotrypsin proteolysis; higher = more stable
MEASURED QUANTITY: folding stability dG unfold

Q: Identify folding stability dG unfold associated with the sequence SAGGSAGGSKKTVLVRITVTLPNGEKREIELEVEVDSVEDLKELLKKLPLPPGMKVTIEVVPASAGGSAGGS [r20_162_TrROS_Hall]
Result: 3.4 kcal/mol

Q: Identify folding stability dG unfold associated with the sequence SAGGMTTTTTTYTIQLPNGETLTITITTTTLPGGITVTIPIGGTSPDQIAIAKELAEKLAAEIKEAASAGGS [r8_416_JUSTAS]
Result: 3.83 kcal/mol

Q: Identify folding stability dG unfold associated with the sequence SAGGSAGGSKPIPYRVKIPSPNGKTHKFDVQIQVRPDGMIDIHVPSGKTIHIPANYPVEIEPWSAGGSAGGS [r20_227_TrROS]
Result: -0.208 kcal/mol

Q: Identify folding stability dG unfold associated with the sequence SAGGSAGGSAGGSSKVIEVNGYKITVTDNSVEIYNKKTGKKITVNADNPEVQELLKKLLSAGGSAGGSAGGS [r4_353_TrROS_Hall]
Result: 4.25 kcal/mol

All figures here come from the supplement of paper PMC12764529.
